Provenance of the data: the supplement of paper PMC10646978

System: RAW-Dual (murine macrophage reporter line)
Experiment: NF-kB reporter (SEAP) activity fold change vs agonist alone; higher = enhanced NF-kB activity
Conditions: modulator concentration 10 µM; agonist: LPS 0.1 ug/mL
Overview of reported NF-kB reporter across a group of compounds:
experimentalEndpoint: NF-kB reporter

| compound | testTarget | number |
| --- | --- | --- |
| C1=CC2CC1CC2CN1CCC(N2CCCCC2)CC1 (stereo unspecified) | RAW-Dual (murine macrophage reporter line) | 0.949 |
| COCC(C)NC(=O)c1ccc(Cl)c(Cl)c1 (stereo unspecified) | RAW-Dual (murine macrophage reporter line) | 0.926 |
| CCN(CC)Cc1cc(Nc2ccnc3cc(Cl)ccc23)ccc1O.Cl.Cl | RAW-Dual (murine macrophage reporter line) | 0.753 |
| COC(=O)C1=C(C)NC(=O)NC1c1ccc(Cl)c(Cl)c1 (stereo unspecified) | RAW-Dual (murine macrophage reporter line) | 1.03 |
| CC(C)NC(=N)NC(=N)Nc1ccc(Cl)cc1 [Prestw-999] | RAW-Dual (murine macrophage reporter line) | 1.33 |
| COc1ccc(-c2nc3c4cnn(-c5ccc(C)cc5C)c4ncn3n2)c(O)c1 | RAW-Dual (murine macrophage reporter line) | 1.1 |
| COc1ccc(C(C)(C#N)CC#N)cc1 (stereo unspecified) | RAW-Dual (murine macrophage reporter line) | 0.941 |
| Nc1ncnc2c1ncn2C1OC(CO)C(O)C1O (stereo unspecified) | RAW-Dual (murine macrophage reporter line) | 0.93 |
| CCC(CNC(=O)Cc1c(F)cccc1Cl)(OC)c1ccccc1 (stereo unspecified) | RAW-Dual (murine macrophage reporter line) | 0.911 |
| CC1(C)C(=O)C2CC3(O)C4=CC(=O)OC(c5ccoc5)C4(C)CCC3C(C)(C2=O)C1CC(=O)O (stereo unspecified) | RAW-Dual (murine macrophage reporter line) | 1.04 |
| Nc1ccn([C@@H]2O[C@H](CO)[C@@H](O)[C@@H]2O)c(=O)n1 | RAW-Dual (murine macrophage reporter line) | 1.38 |
